Target: human IL-23R (Homo sapiens, UniProt Q5VWK5)
Construct: UniProtKB—Q5VWK5, amino acids 22-629; secretion signal of the plasmid (Promega N1371); expressed in transfected cells
Sequence (Q5VWK5 22-629): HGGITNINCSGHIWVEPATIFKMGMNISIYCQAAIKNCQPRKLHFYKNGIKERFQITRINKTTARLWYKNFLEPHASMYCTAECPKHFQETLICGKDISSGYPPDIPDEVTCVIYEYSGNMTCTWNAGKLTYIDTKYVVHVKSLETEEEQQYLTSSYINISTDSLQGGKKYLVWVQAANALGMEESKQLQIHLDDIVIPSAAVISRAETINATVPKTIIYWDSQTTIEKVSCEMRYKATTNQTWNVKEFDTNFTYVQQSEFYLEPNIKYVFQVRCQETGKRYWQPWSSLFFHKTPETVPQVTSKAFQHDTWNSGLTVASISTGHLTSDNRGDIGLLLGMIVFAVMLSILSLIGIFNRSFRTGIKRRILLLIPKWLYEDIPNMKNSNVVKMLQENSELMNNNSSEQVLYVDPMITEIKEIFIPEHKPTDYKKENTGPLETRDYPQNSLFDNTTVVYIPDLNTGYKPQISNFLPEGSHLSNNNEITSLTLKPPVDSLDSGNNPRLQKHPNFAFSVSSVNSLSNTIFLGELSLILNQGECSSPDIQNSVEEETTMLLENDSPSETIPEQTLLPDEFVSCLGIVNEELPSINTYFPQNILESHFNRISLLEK
Assay: Binding assay (NanoBRET displacement of fluorophore-labelled reference compound) for estimating binding affinity to human IL-23R
Conditions: Table 3-1; read-out: Ki hIL-23R
pKi: −log10 of the molar value. *1 amine or outer side, *2 acyl side, *3 side chain or, on linkers, in order; H or OH if unused. Where a SMILES comes first, the peptide text is derived from it. Bridges are numbered along the chain shown (N, C = ends). [ ]: non-standard residue; d: D form. 2Nal = N[C@@H](Cc1ccc2ccccc2c1)C(=O)O; AEF = NCCOc1ccc(C[C@H](N)C(=O)O)cc1; αMeL = CC(C)C[C@](C)(N)C(=O)O; CH2COCH2 = O=C(C[*:1])C[*:2]; 3Amb = NCc1cccc(C(=O)O)c1
ENDPOINT: pKi

CC(C)C[C@]1(C)NC(=O)[C@H](Cc2ccc3ccccc3c2)NC(=O)[C@H](Cc2ccc(OCCN)cc2)NC(=O)[C@@H]2CSCC(=O)CSC[C@H](NC(=O)[C@H](CO)NC(=O)c3cccc(c3)CNC(=O)CC[C@@H](C(=O)N[C@@H](CCCNC(=N)N)C(N)=O)NC1=O)C(=O)N[C@@H](Cc1c[nH]c3ccccc13)C(=O)N[C@@H](CCC(N)=O)C(=O)N2 [Compound 38] ([3Amb]SCWQC[AEF][2Nal][αMeL]ER-NH2; linker 3-6 via CH2COCH2; lactam N-10) : 8.59

###

target: human IL-23R (Homo sapiens, UniProt Q5VWK5); construct: UniProtKB—Q5VWK5, amino acids 22-629; secretion signal of the plasmid (Promega N1371); expressed in transfected cells; test: Binding assay (NanoBRET displacement of fluorophore-labelled reference compound) for estimating binding affinity to human IL-23R; details: Table 3-1; read-out: Ki hIL-23R
*1 amine or outer side, *2 acyl side, *3 side chain or, on linkers, in order; H or OH if unused. Where a SMILES comes first, the peptide text is derived from it. Bridges are numbered along the chain shown (N, C = ends). [ ]: non-standard residue; d: D form. 2Nal = N[C@@H](Cc1ccc2ccccc2c1)C(=O)O; AEF = NCCOc1ccc(C[C@H](N)C(=O)O)cc1; 3Pal = N[C@@H](Cc1cccnc1)C(=O)O; αMeL = CC(C)C[C@](C)(N)C(=O)O; CH2COCH2 = O=C(C[*:1])C[*:2]; 3Amb = NCc1cccc(C(=O)O)c1; Dab = NCC[C@H](N)C(=O)O
ENDPOINT: Ki (nM)

CC(C)C[C@]1(C)NC(=O)[C@H](Cc2ccc3ccccc3c2)NC(=O)[C@H](Cc2ccc(OCCN)cc2)NC(=O)[C@@H]2CCNC(=O)CC[C@H](NC(=O)[C@H](CO)NC(=O)c3cccc(c3)CNC(=O)CC[C@@H](C(=O)N[C@@H](CCCNC(=N)N)C(N)=O)NC1=O)C(=O)N[C@@H](Cc1c[nH]c3ccccc13)C(=O)N[C@@H](CCC(N)=O)C(=O)N2 [Compound 67] ([3Amb]SEWQ[Dab][AEF][2Nal][αMeL]ER-NH2; lactam 3-6, N-10) : 0.76
CC(C)C[C@]1(C)NC(=O)[C@H](Cc2ccc3ccccc3c2)NC(=O)[C@H](Cc2ccc(OCCN)cc2)NC(=O)[C@@H]2CSCC(=O)CSC[C@H](NC(=O)[C@H](CO)NC(=O)c3cccc(c3)CNC(=O)CC[C@@H](C(=O)N[C@@H](CCN)C(=O)N[C@@H](Cc3cccnc3)C(N)=O)NC1=O)C(=O)N[C@@H](Cc1c[nH]c3ccccc13)C(=O)N[C@@H](CCC(N)=O)C(=O)N2 [Compound 148] ([3Amb]SCWQC[AEF][2Nal][αMeL]E[Dab][3Pal]-NH2; linker 3-6 via CH2COCH2; lactam N-10) : 0.00897

###

// values below are reported remaining at 1 h, 10 μM
Experiment: Peptide stability in simulated intestinal fluid (SIF)
Assay type: in vitro ADME
Settings: pig, simulated intestinal fluid (SIF) with porcine pancreatin, Table 3-2, porcine pancreatin, pH 6.8, 37° C., 10 μM, 1 h, read-out: SIF (% remaining 1 h)
Method: Determination of Peptide Stability in Simulated Gastric Fluid (SGF) and Simulated Intestinal Fluid (SIF) SGF was prepared by dissolving sodium chloride (0.2 g) in 50 mL of water. A volume of 0.7 mL of 10 M HCl was added to adjust the pH of the solution to 1.2 and the volume made up to 100 mL with water. […] The incubation was performed at 37° C. with gentle shaking. […] Percent remaining at each timepoint was calculated relative to timepoint zero based on absolute peak areas.
*1 amine or outer side, *2 acyl side, *3 side chain or, on linkers, in order; H or OH if unused. Where a SMILES comes first, the peptide text is derived from it. Bridges are numbered along the chain shown (N, C = ends). [ ]: non-standard residue; d: D form. 2Nal = N[C@@H](Cc1ccc2ccccc2c1)C(=O)O; AEF = NCCOc1ccc(C[C@H](N)C(=O)O)cc1; CH2COCH2 = O=C(C[*:1])C[*:2]
ENDPOINT: remaining at 1 h, 10 μM (%)

CC(C)C[C@]1(C)NC(=O)[C@H](Cc2ccc3ccccc3c2)NC(=O)[C@H](Cc2ccc(OCCN)cc2)NC(=O)[C@@H]2CSCC(=O)CSC[C@H](NC(=O)[C@H](CO)NC(=O)c3cccc(c3)CNC(=O)CC[C@@H](C(=O)N[C@@H](CO)C(N)=O)NC1=O)C(=O)N[C@@H](Cc1c[nH]c3ccccc13)C(=O)N[C@@H](CCC(N)=O)C(=O)N2 : 79
CC(=O)N[C@H]1CCCCNC(=O)CC[C@@H](C(=O)N[C@@H](CCCNC(=N)N)C(N)=O)NC(=O)[C@@H](CC(C)C)NC(=O)[C@H](Cc2ccc3ccccc3c2)NC(=O)[C@H](Cc2ccc(OCCN)cc2)NC(=O)[C@@H]2CSCC(=O)CSC[C@H](NC(=O)[C@H](CO)NC1=O)C(=O)N[C@@H](Cc1c[nH]c3ccccc13)C(=O)N[C@@H](CCC(N)=O)C(=O)N2 [Compound 48] (Ac-KSCWQC[AEF][2Nal][dL]ER-NH2; lactam 1-10; linker 3-6 via CH2COCH2) : 0
